biological target: hERG K+ channel (Kv11.1) (Homo sapiens); construct: gene KCNH2; experiment: two-microelectrode voltage clamp, hERG tail current inhibition in Xenopus oocytes; alanine mutants Y652A and F656A reduce block; format: cell-based
Sequence (Q12809 whole entry): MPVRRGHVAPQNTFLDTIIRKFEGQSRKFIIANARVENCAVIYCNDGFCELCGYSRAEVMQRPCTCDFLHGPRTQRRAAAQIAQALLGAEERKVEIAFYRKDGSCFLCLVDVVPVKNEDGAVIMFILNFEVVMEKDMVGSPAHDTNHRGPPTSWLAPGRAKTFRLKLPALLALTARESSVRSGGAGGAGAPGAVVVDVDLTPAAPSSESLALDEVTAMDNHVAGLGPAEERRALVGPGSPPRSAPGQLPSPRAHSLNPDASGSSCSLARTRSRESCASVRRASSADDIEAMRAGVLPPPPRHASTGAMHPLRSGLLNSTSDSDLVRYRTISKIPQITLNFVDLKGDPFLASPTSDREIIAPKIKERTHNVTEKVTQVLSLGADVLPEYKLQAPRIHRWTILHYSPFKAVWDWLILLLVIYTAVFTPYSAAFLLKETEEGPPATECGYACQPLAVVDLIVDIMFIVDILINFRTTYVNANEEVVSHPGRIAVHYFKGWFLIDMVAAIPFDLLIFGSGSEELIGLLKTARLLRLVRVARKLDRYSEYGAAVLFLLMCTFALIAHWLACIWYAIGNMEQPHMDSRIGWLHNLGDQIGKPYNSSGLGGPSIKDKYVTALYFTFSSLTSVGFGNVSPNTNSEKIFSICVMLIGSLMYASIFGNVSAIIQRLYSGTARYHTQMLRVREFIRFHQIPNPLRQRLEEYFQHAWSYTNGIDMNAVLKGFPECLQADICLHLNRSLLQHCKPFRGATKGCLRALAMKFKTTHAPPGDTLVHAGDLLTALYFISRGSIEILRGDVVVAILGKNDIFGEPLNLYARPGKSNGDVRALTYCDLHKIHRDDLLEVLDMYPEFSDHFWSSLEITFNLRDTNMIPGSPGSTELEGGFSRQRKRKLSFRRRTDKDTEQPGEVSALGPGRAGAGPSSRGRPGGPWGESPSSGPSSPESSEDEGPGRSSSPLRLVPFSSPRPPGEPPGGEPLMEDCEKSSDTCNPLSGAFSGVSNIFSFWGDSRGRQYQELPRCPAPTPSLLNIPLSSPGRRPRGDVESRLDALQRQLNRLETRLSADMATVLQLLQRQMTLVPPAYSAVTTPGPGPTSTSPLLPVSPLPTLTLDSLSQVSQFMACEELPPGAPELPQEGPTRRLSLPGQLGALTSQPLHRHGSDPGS
Measurement name: IC50
Express your answer as a number followed by its unit.

Consider the compound O=C(CCc1ccccc1)c1ccccc1OCC(O)CN1CCN(C(c2ccccc2)(c2ccccc2)c2ccccc2)CC1 (stereo not shown) [FB213] and give its recorded IC50.
47.1 µM
